target: UniProtKB P05067; test: Th-T (thioflavin-T) assay of Aβ42 aggregation; type: biochemical; details: reading M126; compound at 20 (head suffix _20)
outcomeMeasure: Th-T fluorescence, mean of three wells (Fig. 7a)
Please reply with the value in numeric form only.

Task: Requested read-out Th-T fluorescence, mean of three wells (Fig. 7a), target or system UniProtKB P05067, entry C=C1CC[C@@H]2[C@](C)(CC[C@H]3O[C@H](C=C(C)C)C[C@@]23C)[C@@H]1Cc1c(OC)oc(CO)c(C(=O)OC)c1=O
Result: 0.9491

Task: Requested read-out Th-T fluorescence, mean of three wells (Fig. 7a), target or system UniProtKB P05067, entry C=C1CC[C@@H]2[C@](C)(CC[C@H]3O[C@H](C=C(C)C)C[C@@]23C)[C@@H]1Cc1c(OC)oc(CO)c(C)c1=O
Result: 3.128

Task: Requested read-out Th-T fluorescence, mean of three wells (Fig. 7a), target or system UniProtKB P05067, entry C=C1CCC2C(C)(CCC=C(C)C)C(O)CCC2(C)C1Cc1c(OC)oc(CO)c(C)c1=O (centres unmarked)
Result: 2.184

Task: Requested read-out Th-T fluorescence, mean of three wells (Fig. 7a), target or system UniProtKB P05067, entry C=C1CCC2C(C)(CCC=C(C)C)C(O)CCC2(C)C1Cc1c(OC)oc(CO)c(C(=O)OC)c1=O (centres unmarked)
Result: 1.031

Task: Requested read-out Th-T fluorescence, mean of three wells (Fig. 7a), target or system UniProtKB P05067, entry C=C1CCC2C(C)(CCC=C(C)C)C(O)CCC2(C)C1Cc1c(OC)oc(C)c(C(=O)OC)c1=O (centres unmarked)
Result: 1.6231

---

biological target: UniProtKB P05067; experiment: Th-T (thioflavin-T) assay of Aβ42 aggregation; format: biochemical; conditions: column suffix _50; reading M100
outcomeMeasure: Fig. 7a Th-T reading, mean of three wells

Task: Endpoint output: Fig. 7a Th-T reading, mean of three wells of C=C1CCC2C(C)(CCC=C(C)C)C(O)CCC2(C)C1Cc1c(OC)oc(C)c(C(=O)OC)c1=O (centres unmarked) . Value?
Result: 1.465

Task: Endpoint output: Fig. 7a Th-T reading, mean of three wells of C=C1CCC2C(C)(CCC=C(C)C)C(O)CCC2(C)C1Cc1c(OC)oc(CO)c(C(=O)OC)c1=O (centres unmarked) . Value?
Result: 0.4783

Task: Endpoint output: Fig. 7a Th-T reading, mean of three wells of C=C1CC[C@@H]2[C@](C)(CC[C@H]3O[C@H](C=C(C)C)C[C@@]23C)[C@@H]1Cc1c(OC)oc(CO)c(C)c1=O . Value?
Result: 2.117

Task: Endpoint output: Fig. 7a Th-T reading, mean of three wells of C=C1CCC2C(C)(CCC=C(C)C)C(O)CCC2(C)C1Cc1c(OC)oc(CO)c(C)c1=O (centres unmarked) . Value?
Result: 1.41

Task: Endpoint output: Fig. 7a Th-T reading, mean of three wells of C=C1CC[C@@H]2[C@](C)(CC[C@H]3O[C@H](C=C(C)C)C[C@@]23C)[C@@H]1Cc1c(OC)oc(CO)c(C(=O)OC)c1=O . Value?
Result: 0.4671

---

assay: cytotoxicity in Drosophila DL1 cells; assay type: cell-based; conditions: Drosophila, DL1 cells (embryonic macrophage-derived), DL1 cells, 0.2 µM, replicate 1, relative to DMSO 1%; read-out: % viability, viability 1
outcomeMeasure: viability at 0.2 µM

Task: Endpoint output: viability at 0.2 µM of C=C1CCC2C3(C)CC(C=C(C)C)OC3CCC2(C)C1Cc1c(OC)oc(C)c(C)c1=O (stereo not shown) . Value?
Result: 21.3%

Task: Endpoint output: viability at 0.2 µM of C=C1CCC2C(C)(CCC=C(C)C)C(O)CCC2(C)C1Cc1c(OC)oc(CO)c(C)c1=O (stereo not shown) . Value?
Result: 86.4%

Task: Endpoint output: viability at 0.2 µM of C=C1CCC2C(C)(CC(=O)C=C(C)C)C(O)CCC2(C)C1Cc1c(O)c(C)c(C)oc1=O (stereo not shown) . Value?
Result: 133%

Task: Endpoint output: viability at 0.2 µM of C=C1CC[C@@H]2[C@](C)(CC[C@H]3O[C@H](C=C(C)C)C[C@@]23C)[C@@H]1Cc1c(O)c(C)c(C)oc1=O . Value?
Result: 36.2%

Task: Endpoint output: viability at 0.2 µM of C=C1CC[C@H]2[C@]3(C)C[C@H](C=C(C)C)O[C@H]3CC[C@]2(C)[C@@H]1Cc1c(OC)oc(CO)c(C)c1=O . Value?
Result: 56.9%

Task: Endpoint output: viability at 0.2 µM of C=C1CC[C@H]2[C@]3(C)C[C@@H](C=C(C)C)O[C@H]3CC[C@]2(C)[C@@H]1Cc1c(OC)oc(CO)c(C)c1=O . Value?
Result: 174%

Task: Endpoint output: viability at 0.2 µM of C=C1CC[C@H]2[C@]3(C)C[C@@H](C=C(C)C)O[C@H]3CC[C@]2(C)[C@@H]1Cc1c(O)c(C)c(C)oc1=O . Value?
Result: 3.78%

---

molecular target: Aβ42 (Homo sapiens); assay: Th-T (thioflavin-T) assay of Aβ42 aggregation; format: biochemical; details: measurement M13; source data, Ab alone and No Ab as controls
Sequence (P05067 672-713): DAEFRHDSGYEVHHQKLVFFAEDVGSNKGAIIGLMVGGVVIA
outcomeMeasure: Th-T assay plate reading, mean of three wells (Supplementary Fig. 47)

Task: Endpoint output: Th-T assay plate reading, mean of three wells (Supplementary Fig. 47) of C=C1CC[C@@H]2[C@](C)(CC[C@H]3O[C@H](C=C(C)C)C[C@@]23C)[C@@H]1Cc1c(OC)oc(CO)c(C)c1=O . Value?
Result: 1.7846

Task: Endpoint output: Th-T assay plate reading, mean of three wells (Supplementary Fig. 47) of C=C1CC[C@H]2[C@]3(C)C[C@H](C=C(C)C)O[C@H]3CC[C@]2(C)[C@@H]1Cc1c(OC)oc(C)c(C)c1=O . Value?
Result: 2.959

Task: Endpoint output: Th-T assay plate reading, mean of three wells (Supplementary Fig. 47) of C=C1CCC2C(C)(CCC=C(C)C)C(O)CCC2(C)C1Cc1c(O)c(C)c(C)oc1=O (stereo not shown) [Compound 4] . Value?
Result: 0.9703

Task: Endpoint output: Th-T assay plate reading, mean of three wells (Supplementary Fig. 47) of C=C1CC[C@H]2[C@]3(C)C[C@H](C=C(C)C)O[C@H]3CC[C@]2(C)[C@@H]1Cc1c(OC)oc(CO)c(C)c1=O . Value?
Result: 1.941

---

tested on: DL1 cells; experiment: cytotoxicity in Drosophila DL1 cells; assay type: cell-based; conditions: DL1 cells, 4 µM, replicate 1
I'd be grateful if you could share measured Luminescence Raw1 for these entries.
Please reply with the value in numeric form only.

Task: Endpoint output: Luminescence Raw1 of C=C1CCC2C(C)(CCC=C(C)C)C(O)CCC2(C)C1Cc1c(OC)oc(CO)c(C)c1=O (stereo not shown) . Value?
Result: 122950

Task: Endpoint output: Luminescence Raw1 of C=C1CC[C@H]2[C@]3(C)C[C@H](C=C(C)C)O[C@H]3CC[C@]2(C)[C@@H]1Cc1c(OC)oc(CO)c(C)c1=O . Value?
Result: 102038

Task: Endpoint output: Luminescence Raw1 of C=C1CCC2C(C)(CC(=O)C=C(C)C)C(O)CCC2(C)C1Cc1c(OC)oc(CO)c(C)c1=O (stereo not shown) . Value?
Result: 1789301

Task: Endpoint output: Luminescence Raw1 of C=C1CCC2C(C)(CC(=O)C=C(C)C)C(O)CCC2(C)C1Cc1c(OC)oc(C)c(C)c1=O (stereo not shown) . Value?
Result: 2684468

Task: Endpoint output: Luminescence Raw1 of C=C1CCC2C(C)(CCC=C(C)C)C(O)CCC2(C)C1Cc1c(O)c(C)c(C)oc1=O (stereo not shown) . Value?
Result: 345570

Task: Endpoint output: Luminescence Raw1 of C=C1CC[C@@H]2[C@](C)(CC[C@H]3O[C@H](C=C(C)C)C[C@@]23C)[C@@H]1Cc1c(OC)oc(CO)c(C(=O)OC)c1=O . Value?
Result: 143141

Task: Endpoint output: Luminescence Raw1 of C=C1CC[C@H]2[C@]3(C)C[C@H](C=C(C)C)O[C@H]3CC[C@]2(C)[C@@H]1Cc1c(O)c(C)c(C)oc1=O . Value?
Result: 161874

Task: Endpoint output: Luminescence Raw1 of C=C1CC[C@@H]2[C@](C)(CC[C@H]3O[C@H](C=C(C)C)C[C@@]23C)[C@@H]1Cc1c(OC)oc(CO)c(C)c1=O . Value?
Result: 279585

Task: Endpoint output: Luminescence Raw1 of C=C1CC[C@@H]2[C@](C)(CC[C@H]3O[C@H](C=C(C)C)C[C@@]23C)[C@@H]1Cc1c(O)c(C)c(C)oc1=O . Value?
Result: 98071

Task: Endpoint output: Luminescence Raw1 of C=C1CC[C@H]2[C@]3(C)C[C@@H](C=C(C)C)O[C@H]3CC[C@]2(C)[C@@H]1Cc1c(OC)oc(CO)c(C)c1=O . Value?
Result: 264802
